System: SW-620
protocol.details: Cytotoxicity against human SW620 cells assessed as inhibition of tumor growth after 24 hrs
Assay type: functional, cell-based
condition.details: SW-620, 24 h
measurement.label: IC50

O=C1/C(=C\c2ccccc2)CN(C(=O)CC(=O)N2C/C(=C\c3ccccc3)C(=O)/C(=C/c3ccccc3)C2)C/C1=C\c1ccccc1; 0.05 µM
COc1cc(/C=C2\CN(C(=O)C(=O)N3C/C(=C\c4cc(OC)c(OC)c(OC)c4)C(=O)/C(=C/c4cc(OC)c(OC)c(OC)c4)C3)C/C(=C\c3cc(OC)c(OC)c(OC)c3)C2=O)cc(OC)c1OC; 0.03 µM

Let us move to another entry and its IC50.
Return reported IC50; argument: COc1cc(/C=C2/CN(C(=O)CC(=O)N3C/C(=C\c4cc(OC)c(OC)c(OC)c4)C(=O)/C(=C/c4cc(OC)c(OC)c(OC)c4)C3)C/C(=C\c3cc(OC)c(OC)c(OC)c3)C2=O)cc(OC)c1OC
0.05 µM

These entries and their values trace back to ChEMBL document CHEMBL3352437.
